All values here come from ChEMBL document CHEMBL5143532.

# METHOD: Selectivity index, ratio of IC50 for human SGLT1 expressed in CHO cells to IC50 for human SGLT2 expressed in CHO cells
# Format: cell-based
ASSAY_READOUT: Ratio IC50
Write the value as a bare number.

Query COc1ccc(Cc2cc([C@@H]3O[C@H](CO)[C@@H](O)[C@H](O)[C@H]3O)c3c(c2Cl)CCCO3)cc1 yields Ratio IC50 of 17

Query CCCc1ccc(Cc2cc([C@@H]3O[C@H](CO)[C@@H](O)[C@H](O)[C@H]3O)c3c(c2Cl)OCC3)cc1 yields Ratio IC50 of 1170

Query COc1ccc(Cc2cc([C@@H]3O[C@H](CO)[C@@H](O)[C@H](O)[C@H]3O)c3c(c2Cl)OCC3)cc1 yields Ratio IC50 of 261
